For reference, Kd measured on PCSK9 (Homo sapiens, UniProt Q8NBP7):
parameter measured: Kd

compound: C=C(C1=[N+](C)CCc2cc(OC)c(OC)cc21)c1ccc2c(c1C(=O)[O-])OCO2 [compound 3, Hypecotumine C]
parameter measured: Kd
value observed: 95.1 µM
//
compound: C=C(C1=[N+](C)CCc2cc3c(cc21)OCO3)c1ccc(OC)c(O)c1C(=O)[O-] [compound 1, Hypecotumine A]
parameter measured: Kd
value observed: 306 µM
